System: MV4:11 human cancer cell lines
Assay: Anti-proliferative activity, CellTiter-Glo viability assay, 7 day protocol
Format: cell-based
Settings: Homo sapiens, MV4-11, 168 h, MV4:11 cells, 7 day incubation, read-out: GI50 on cellular proliferation of MV4:11 human cancer cell lines
Measured GI50 accompanies every entry in the list below.
quantity_kind: GI50 (nM)

1. CCn1cc(-c2cc(Cn3ccn(C4CC4)c3=N)cc(C(=O)NCc3ccc(=O)n(C)c3)c2)c(C(F)(F)F)n1    940
2. Cc1cc([C@@H](NC(=O)c2cc(Cn3ccsc3=N)cc(-c3cn(C(C)C)nc3C(F)(F)F)c2)C2CC2)ccc1F    150
3. Cc1cc(CNC(=O)c2cc(Cn3ccn(C)c3=N)cc(-c3cccc4[nH]nc(C)c34)c2)ccc1Cl    5900
4. Cc1cc([C@@H](NC(=O)c2cc(Cn3ccn(C4CC4)c3=N)cc(-c3ccc(F)cc3C(F)F)c2)C2CC2)ccc1F    170
5. COc1cc(CNC(=O)c2cc(Cn3ccn(C)c3=N)cc(-c3ccc(F)cc3C(F)(F)F)c2)cc(OC)c1    160
6. Cc1cc(CNC(=O)c2cc(Cn3ccn(C)c3=N)cc(-c3ncc(F)cc3C)c2)ccc1Cl    2400
7. Cc1cc(CNC(=O)c2cc(Cn3ccn(C)c3=N)cc(-c3c(C)ccc4[nH]ncc34)c2)ccc1Cl    4900
8. Cc1cc([C@@H](NC(=O)c2cc(Cn3ccoc3=N)cc(-c3cccnc3OC(F)F)c2)C2CC2)ccc1F    730
9. C=C(c1cc(Cn2ccn(C)c2=N)cc(C(=O)N[C@H](c2ccc(F)c(C)c2)C2CC2)c1)C(F)(F)F    500
10. CCn1ccn(Cc2cc(C(=O)N[C@H](c3ccc(F)c(C)c3)C3CC3)cc(-c3cccnc3C(F)(F)F)c2)c1=N    300
11. Cc1cc([C@@H](NC(=O)c2cc(Cn3ccoc3=N)cc(-c3ncc(F)cc3C(F)(F)F)c2)C2CC2)ccc1F    12000
12. COc1cc(CNC(=O)c2cc(Cn3ccoc3=N)cc(-c3ncc(F)cc3C)c2)cc(OC)c1    3800
13. COc1cc(CNC(=O)c2cc(Cn3ccn(C4CC4)c3=N)cc(-c3ccc(F)cc3C)c2)cc(OC)c1    310
14. Cc1cc(C(C)NC(=O)c2cc(Cn3ccn(C)c3=N)cc(-c3ccc(F)cc3C)n2)ncc1Cl (stereo not shown)    1800
15. COc1ccnc(CNC(=O)c2cc(Cn3ccn(C)c3=N)cc(-c3ccncc3C)c2)c1    170
16. Cc1cc([C@H](C)NC(=O)c2cc(Cn3ccn(C)c3=N)cc(-c3ccc(F)cc3C)c2)ccc1F    100
17. Cc1cc([C@@H](NC(=O)c2cc(CN3CCN(C)C3=N)cc(-c3cccnc3C(F)(F)F)c2)C2CC2)ccc1F    170
18. Cc1ccnc(C(NC(=O)c2cc(Cn3ccn(C)c3=N)cc(-c3ncccc3C(F)(F)F)c2)C2CC2)c1 (stereo not shown)    7800
19. CC(=O)/N=c1\n(C)ccn1Cc1cc(C(=O)NCc2ccc(Cl)c(Cl)c2)cc(-c2ccc(F)nc2C)c1    5900
20. Cc1cc([C@@H](NC(=O)c2cc(Cn3ccn(C)c3=N)cc(-c3ccc(F)cc3C(F)F)c2)C2CC2)ccc1F    120
21. Cc1cc([C@@H](NC(=O)c2cc(Cn3ccn(C)c3=N)cc(-c3ccnn3C(C)C)c2)C2CC2)ccc1F    2160

// provenance: patent US10844044B2
